# protocol_summary: in vitro
# condition_details: human, hela cells, % viability
// viability at 28.5 h, 10 µM lookup, one value per entry

>  <molecule>
CCC(CC)C(=O)N1CCn2c(nnc2-c2cncc(Br)c2)C1

>  <viability at 28.5 h, 10 µM>
96.1%

$$$$
>  <molecule>
Cc1nn(C)cc1S(=O)(=O)Nc1cccc(-c2ccc(F)cc2)c1

>  <viability at 28.5 h, 10 µM>
103%

$$$$
>  <molecule>
NC(=O)N/N=C/c1ccncc1

>  <viability at 28.5 h, 10 µM>
107%

$$$$
>  <molecule>
COc1ccc([C@@]23CCN(C(=O)Nc4ccc(F)c(F)c4F)C[C@@H]2CN(C)C3)cc1OC [CBK074305T]

>  <viability at 28.5 h, 10 µM>
106%

$$$$
>  <molecule>
c1cncc(C2N3CCC4(CC3)c3[nH]c5ccccc5c3CCN24)c1 (centres unmarked)

>  <viability at 28.5 h, 10 µM>
92.8%

$$$$

---

# protocol_summary: in vitro
# condition_details: human, hela cells, % viability
// viability at 28.5 h, 10 µM lookup, one value per entry

>  <molecule>
CC(=O)Nc1ccc(NC(=O)c2ccc(-c3ccc([N+](=O)[O-])cc3)o2)cc1

>  <unit_annotation>
%

>  <viability at 28.5 h, 10 µM>
99.8

$$$$
>  <molecule>
CC(NC(=O)N1CCCC(CO)C1)c1ccccc1 (stereo not drawn)

>  <unit_annotation>
%

>  <viability at 28.5 h, 10 µM>
87.1

$$$$
>  <molecule>
COc1cc(C=Cc2nc3cc(Cl)ccc3s2)ccc1OCC(=O)O

>  <unit_annotation>
%

>  <viability at 28.5 h, 10 µM>
96.4

$$$$
>  <molecule>
Cc1ccc(CN(CC(=O)N2CCCCC2)S(=O)(=O)c2ccc(C)cc2)cc1

>  <unit_annotation>
%

>  <viability at 28.5 h, 10 µM>
91.6

$$$$
>  <molecule>
CC(Oc1ccccc1)C(=O)N1CCN(CCO)CC1 (stereo not drawn)

>  <unit_annotation>
%

>  <viability at 28.5 h, 10 µM>
98.6

$$$$
>  <molecule>
Cc1nc2sc3c(c2c2nc(-c4ccncc4)nn12)CCCC3

>  <unit_annotation>
%

>  <viability at 28.5 h, 10 µM>
94.5

$$$$
>  <molecule>
CCCNC(=O)Cn1nc(CC)n2c(cc3sccc32)c1=O

>  <unit_annotation>
%

>  <viability at 28.5 h, 10 µM>
89.3

$$$$
>  <molecule>
CCc1nc2ccc(C(=O)N3CCCCC3)cn2c1N(C)C(=O)c1cccc(OC)c1

>  <unit_annotation>
%

>  <viability at 28.5 h, 10 µM>
113

$$$$
>  <molecule>
O=C(O)COCC(=O)N[C@H]1CCN2C(=O)c3ccc(Cl)cc3NC(=O)[C@H]12

>  <unit_annotation>
%

>  <viability at 28.5 h, 10 µM>
90

$$$$
>  <molecule>
Nc1ncc(-c2ccc(F)c(Cl)c2)nc1NCCCO

>  <unit_annotation>
%

>  <viability at 28.5 h, 10 µM>
101

$$$$
>  <molecule>
CCCc1cc(=O)[nH]c(SCc2noc(-c3snnc3C)n2)n1

>  <unit_annotation>
%

>  <viability at 28.5 h, 10 µM>
87.4

$$$$
>  <molecule>
N#Cc1cccc(Nc2cncc(-c3cccc(N)c3)n2)c1

>  <unit_annotation>
%

>  <viability at 28.5 h, 10 µM>
89.1

$$$$
>  <molecule>
O=C(NC1CCCC1)c1cccnc1

>  <unit_annotation>
%

>  <viability at 28.5 h, 10 µM>
111

$$$$
>  <molecule>
OCC1CCCN1c1nccnc1-c1ccccc1F (stereo not drawn)

>  <unit_annotation>
%

>  <viability at 28.5 h, 10 µM>
104

$$$$
>  <molecule>
CCC1CCCCN1C(=O)c1ccc(C(F)(F)F)cc1 (stereo not drawn)

>  <unit_annotation>
%

>  <viability at 28.5 h, 10 µM>
107

$$$$
>  <molecule>
CC(Oc1ccccc1)c1nnc(SCC(=O)Nc2ccc(Br)cc2F)n1C (stereo not drawn)

>  <unit_annotation>
%

>  <viability at 28.5 h, 10 µM>
101

$$$$
>  <molecule>
CC(Cn1cc(Cl)cn1)C(=O)N1CCN(C)CC1c1ccccc1 (stereo not drawn)

>  <unit_annotation>
%

>  <viability at 28.5 h, 10 µM>
111

$$$$
>  <molecule>
Cc1ccc(C(NC(=O)Cn2ccnc2)c2ccncc2)cc1C (stereo not drawn)

>  <unit_annotation>
%

>  <viability at 28.5 h, 10 µM>
87.4

$$$$
>  <molecule>
CCc1nnc(NC(=O)CSc2ncnc3c2oc2ccccc23)s1

>  <unit_annotation>
%

>  <viability at 28.5 h, 10 µM>
90.7

$$$$
>  <molecule>
O=C(CC1S/C(=N/N=C/c2ccccc2C(=O)O)NC1=O)Nc1ccccc1 (stereo not drawn)

>  <unit_annotation>
%

>  <viability at 28.5 h, 10 µM>
99.7

$$$$
>  <molecule>
Cc1ccc(S(=O)(=O)NCCSc2nc(-c3ccc([N+](=O)[O-])cc3)c[nH]2)cc1

>  <unit_annotation>
%

>  <viability at 28.5 h, 10 µM>
97

$$$$
>  <molecule>
N#CC(C(=O)NC1CCCCC1)C(=O)c1nn(-c2ccccc2)c2c1CSc1ccccc1-2 (stereo not drawn)

>  <unit_annotation>
%

>  <viability at 28.5 h, 10 µM>
103

$$$$
>  <molecule>
O=C(O)C1Cc2c([nH]c3ccccc23)C(c2cc(Br)ccc2O)N1 (stereo not drawn)

>  <unit_annotation>
%

>  <viability at 28.5 h, 10 µM>
88.1

$$$$
>  <molecule>
CCn1cncc1C(=O)N1CCCC1(C)C(=O)NC1CCCC1 (stereo not drawn)

>  <unit_annotation>
%

>  <viability at 28.5 h, 10 µM>
81.2

$$$$
>  <molecule>
Cc1c(Br)c(C(F)(F)F)nn1CC(=O)NCCN1CCOCC1

>  <unit_annotation>
%

>  <viability at 28.5 h, 10 µM>
107

$$$$
>  <molecule>
COc1ccc(C2(NCc3ccc(N4CCCC4=O)cc3)CC2)cc1

>  <unit_annotation>
%

>  <viability at 28.5 h, 10 µM>
103

$$$$
>  <molecule>
CC(C)n1c(=O)n(CC(=O)NCc2cccs2)c2cccnc21

>  <unit_annotation>
%

>  <viability at 28.5 h, 10 µM>
88.6

$$$$
>  <molecule>
Cc1noc(C)c1S(=O)(=O)Nc1ccsc1C(=O)Nc1ccc(F)cc1

>  <unit_annotation>
%

>  <viability at 28.5 h, 10 µM>
86.3

$$$$
>  <molecule>
Nc1nc2ccccc2c(=O)[nH]1

>  <unit_annotation>
%

>  <viability at 28.5 h, 10 µM>
101

$$$$
>  <molecule>
FC(F)(F)c1cccc(NC(=S)Nc2ccc(Cc3ccncc3)cc2)c1

>  <unit_annotation>
%

>  <viability at 28.5 h, 10 µM>
89.1

$$$$
>  <molecule>
Cc1cc(C)n(CC(=O)NCC(c2c(F)cccc2F)N(C)C)n1 (stereo not drawn)

>  <unit_annotation>
%

>  <viability at 28.5 h, 10 µM>
96.7

$$$$
>  <molecule>
Cc1ccc2[nH]c(/C(C#N)=C\c3cn(CC(=O)Nc4ccccc4)c4ccccc34)nc2c1

>  <unit_annotation>
%

>  <viability at 28.5 h, 10 µM>
105

$$$$
>  <molecule>
O=C(NCCC1=CCCCC1)Nc1ccc(F)c(F)c1F

>  <unit_annotation>
%

>  <viability at 28.5 h, 10 µM>
89.3

$$$$
>  <molecule>
CC(C)NC(=O)c1ccc(-n2cccn2)c(C#Cc2cccnc2)c1

>  <unit_annotation>
%

>  <viability at 28.5 h, 10 µM>
94.3

$$$$
>  <molecule>
Cc1ccc(CN2C[C@H]3C(=O)Nc4ccccc4C(=O)N[C@@]3(C)C2)o1

>  <unit_annotation>
%

>  <viability at 28.5 h, 10 µM>
95.7

$$$$
>  <molecule>
CCCCOC(=O)CCNc1n[nH]c(=O)[nH]c1=O

>  <unit_annotation>
%

>  <viability at 28.5 h, 10 µM>
97.3

$$$$
>  <molecule>
O=C1CCC(=O)N1CCOc1nccnc1OC1CCN(Cc2ccccc2F)CC1

>  <unit_annotation>
%

>  <viability at 28.5 h, 10 µM>
96.4

$$$$
>  <molecule>
CN1C2CCC1CC(OC(=O)CN1CCCCC1)C2 (stereo not drawn) [CBK278166C]

>  <unit_annotation>
%

>  <viability at 28.5 h, 10 µM>
109

$$$$
>  <molecule>
COc1cccc(CN(Cc2ccco2)Cc2[nH]cnc2C)c1

>  <unit_annotation>
%

>  <viability at 28.5 h, 10 µM>
81.4

$$$$
